Biological target: T1, soluble Homo sapiens CD131 comprising a C-terminal 6xHis tag (human, UniProt P32927 17-438)
T1 construct: truncated after Ser438, C-terminal 6xHis; also called shCD131; shβc
T1 sequence: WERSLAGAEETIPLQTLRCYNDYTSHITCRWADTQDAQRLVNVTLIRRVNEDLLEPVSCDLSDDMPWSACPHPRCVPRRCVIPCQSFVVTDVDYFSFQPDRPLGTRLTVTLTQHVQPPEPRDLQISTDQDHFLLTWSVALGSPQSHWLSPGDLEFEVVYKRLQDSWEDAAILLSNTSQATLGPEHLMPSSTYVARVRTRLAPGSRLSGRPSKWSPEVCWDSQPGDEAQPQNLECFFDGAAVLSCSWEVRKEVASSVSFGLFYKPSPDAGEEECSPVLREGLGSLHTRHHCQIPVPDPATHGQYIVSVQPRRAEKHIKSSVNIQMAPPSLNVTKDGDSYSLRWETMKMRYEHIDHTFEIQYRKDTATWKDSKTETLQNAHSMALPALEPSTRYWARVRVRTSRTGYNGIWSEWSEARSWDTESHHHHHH
Assay: SPR, Fab over captured shCD131
observation type: pKd
On this scale, pKd is minus log10 of a concentration expressed in M (mol/L).

>  <binder>
9A2-VR24.98 Fab (Fab, V domains shown, recombinant Fab) VH: EVQLLESGGGLVQPGGSLRLSCAASGFTFPWYRVHWVRQAPGKGLEWVSSIRSSGGFPHYNSVVKGRFTISRDNSKNTLYLQMNSLRAEDTAVYYCARFYDSFFDIWGQGTMVTVSS VL: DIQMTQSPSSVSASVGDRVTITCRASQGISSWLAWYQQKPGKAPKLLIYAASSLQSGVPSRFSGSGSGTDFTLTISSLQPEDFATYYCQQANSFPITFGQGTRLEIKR

>  <pKd>
9.76

$$$$
>  <binder>
9A2-VR39.109 Fab (Fab, V domains shown, recombinant Fab) VH: EVQLLESGGGLVQPGGSLRLSCAASGFTFMWYHHIWVRQAPGKGLEWVSSINGRGRVTYYADSVKGRFTISRDNSKNTLYLQMNSLRAEDTAVYYCARFYDSFFDIWGQGTMVTVSS VL: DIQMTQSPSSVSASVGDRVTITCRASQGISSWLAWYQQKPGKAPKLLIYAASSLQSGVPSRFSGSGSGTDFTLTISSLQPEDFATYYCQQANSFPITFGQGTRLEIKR

>  <pKd>
10.01

$$$$

Q: Tell me the measured pKd of 9A2-VR24.44 Fab (Fab, V domains shown, recombinant Fab) VH: EVQLLESGGGLVQPGGSLRLSCAASGFTFPWYRVHWVRQAPGKGLEWVSSIRSSGGFPYYHPSVKGRFTISRDNSKNTLYLQMNSLRAEDTAVYYCARFYDSFFDIWGQGTMVTVSS VL: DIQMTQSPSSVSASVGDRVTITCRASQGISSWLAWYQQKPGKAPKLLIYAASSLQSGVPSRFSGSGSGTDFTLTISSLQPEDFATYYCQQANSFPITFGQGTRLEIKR , please.
A: 9.79
